test.system: Gal(b1-4)GlcNAc(b1-2)[Gal(b1-4)GlcNAc(b1-6)]Man(a1-6)[GlcNAc(b1-4)][Gal(b1-4)GlcNAc(b1-2)Man(a1-3)]Man(b1-4)GlcNAc(b1-4)GlcNAc
assay.summary: glycan array binding signal (z-score within array); higher = stronger binding
measurement.parameters: glycan notation: IUPAC condensed, linker removed
The sample as a whole holds a higher share of the strongest signals than the screen did.
metric.name: glycan array binding signal (z-score)
API doc: respond with a numeric literal and nothing else, no unit.

These solved cases illustrate the format of a correct answer.
{"columns": ["binder", "metric.name", "assay.value"],
 "data": [
  ["Aap lectin (Staphylococcus epidermidis) (protein) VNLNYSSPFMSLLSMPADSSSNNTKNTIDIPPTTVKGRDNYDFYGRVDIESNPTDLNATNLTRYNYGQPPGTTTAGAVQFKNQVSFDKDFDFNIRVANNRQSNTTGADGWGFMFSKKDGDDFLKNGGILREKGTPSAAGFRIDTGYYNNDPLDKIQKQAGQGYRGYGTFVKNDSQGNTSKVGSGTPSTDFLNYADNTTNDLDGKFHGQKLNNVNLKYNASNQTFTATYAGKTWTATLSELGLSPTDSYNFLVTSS", "glycan array binding signal (z-score)", -0.475],
  ["GNAT (Pseudomonas aeruginosa), Q9HV14 (protein) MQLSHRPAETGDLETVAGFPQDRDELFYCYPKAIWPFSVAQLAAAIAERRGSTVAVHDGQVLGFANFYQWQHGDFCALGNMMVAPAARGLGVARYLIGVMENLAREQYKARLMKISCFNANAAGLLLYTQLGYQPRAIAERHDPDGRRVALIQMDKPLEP", "glycan array binding signal (z-score)", -0.222]
]}

Moving on to another binder below.
Req: Entry under review: Epa20 (Candida glabrata) (protein) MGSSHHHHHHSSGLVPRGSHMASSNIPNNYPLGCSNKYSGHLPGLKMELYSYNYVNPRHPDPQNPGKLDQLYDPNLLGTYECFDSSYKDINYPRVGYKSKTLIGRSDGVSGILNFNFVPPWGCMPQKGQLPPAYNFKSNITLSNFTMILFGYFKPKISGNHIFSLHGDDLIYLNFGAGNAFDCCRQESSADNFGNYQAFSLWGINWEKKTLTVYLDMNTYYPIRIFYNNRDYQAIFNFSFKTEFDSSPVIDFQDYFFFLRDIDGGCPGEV . Reported glycan array binding signal (z-score)?
Resp: -0.48
